Reference source: patent US20250250357A1

# EC50 annotations
tgt: T1, human MSLN-R3 on HEK293T-hMSLN-R3 recombinant cells (human, UniProt Q13421 487-606)
T1 construct: the C-terminal limit is uncertain; also called human MSLN-R3 membrane protein
testName: FACS, HEK293T-hMSLN-R3 cells
// units = nM; emit number, no label

IN: Can you share its EC50? I mean this binder: Tab111 (scFv, not shown: small tags and cut ends, also called YP218 VL-(G4S)3-VH-his antibody; positive control) scFv: DVVMTQTPASVSEPVGGTVTIKCQASQRISSYLSWYQQKPGQRPKLLIFGASTLASGVPSRFKGSGSGTEYTLTISDLECADAATYYCQSYAYFDSNNWHAFGGGTEVVVGGGGSGGGGSGGGGSQQQLEESGGGLVKPEGSLTLTCKASGFDLGFYFYACWVRQAPGKGLEWIACIYTAGSGSTYYASWAKGRFTISKASSTTVTLQMTSLAAADTATYFCARSTANTRSTYYLNLWGPGTLVTVSS
OUT: 1.22

IN: Any idea what EC50 was measured for F2.23.12-H8 (scFv, not shown: small tags and cut ends, also called S009-F2.23.12 humanized antibody VH2 + VL4) scFv: EVQLVQSGAEVKKPGASVKVSCKASGYTFTNYWMHWVRQAPGQGLEWMGNINPSNGGPYYNERFRSRVTMTVDKSTSTAYMELSSLRSEDTAVYYCARPYYGSSYGYFDYWGQGTTVTVSSGGGGSGGGGSGGGGSDIQMTQSPSSLSASVGDRVTITCKASQDINKYIAWYQHKPGKAPKLLIHYTSELQPGVPSRFSGSGSGRDYTFTISSLQPEDIATYYCLQYANPLRTFGGGTKVEIK ?
OUT: 5.57

IN: Consider the binder F2.39.3-H1 (scFv, not shown: small tags and cut ends, also called S009-F2.39.3 humanized antibody VH1 + VL1) scFv: EVQLVQSGAEVKKPGASVKVSCKASGYTFTNYWMHWVRQAPGQGLEWMGNINPSSGDSYYNERFMSRVTMTVDKSTSTVYMELSSLRSEDTAVYYCARSGGLWLAFWGQGTLVTVSSGGGGSGGGGSGGGGSDIVMTQSPDSLAVSLGERATINCKSSQTLLNSVSQNNYLAWYQQKPGQSPKLLIYFASTRESGVPDRFSGSGSGTDFTLTISSLQAEDVAVYYCQQHYRTPYTFGGGTKVEIK and give its measured EC50.
OUT: 4.91

IN: Please look up its EC50: F2.23.12-H5 (scFv, not shown: small tags and cut ends, also called S009-F2.23.12 humanized antibody VH2 + VL1) scFv: EVQLVQSGAEVKKPGASVKVSCKASGYTFTNYWMHWVRQAPGQGLEWMGNINPSNGGPYYNERFRSRVTMTVDKSTSTAYMELSSLRSEDTAVYYCARPYYGSSYGYFDYWGQGTTVTVSSGGGGSGGGGSGGGGSDIQMTQSPSSLSASVGDRVTITCKASQDINKYIAWYQQKPGKAPKLLIHYTSELQPGVPSRFSGSGSGTDFTFTISSLQPEDIATYYCLQYANPLRTFGGGTKVEIK
OUT: 4.16

Next:
IN: Consider the binder shown here: F2.23.12-H16 (scFv, not shown: small tags and cut ends, also called S009-F2.23.12 humanized antibody VH4 + VL4) scFv: EVQLVQSGAEVKKPGASVKVSCKASGYTFTNYWMHWVRQAPGQGLEWMGNINPSQGGPYYNERFRSRVTMTVDKSTSTAYMELSSLRSEDTAVYYCARPYYGSSYGYFDYWGQGTTVTVSSGGGGSGGGGSGGGGSDIQMTQSPSSLSASVGDRVTITCKASQDINKYIAWYQHKPGKAPKLLIHYTSELQPGVPSRFSGSGSGRDYTFTISSLQPEDIATYYCLQYANPLRTFGGGTKVEIK What is its recorded EC50?
OUT: 9.39

IN: Need EC50 of F2.39.3-H9 (scFv, not shown: small tags and cut ends, also called S009-F2.39.3 humanized antibody VH3 + VL1) scFv: EVQLVQSGAEVKKPGASVKVSCKASGYTFTNYWMHWVRQAPGQGLEWMGNINPSSGDSYYNERFMSRVTMTVDKSTSTAYMELSSLRSEDTAVYYCARSGGLWLAFWGPGTLVTVSSGGGGSGGGGSGGGGSDIVMTQSPDSLAVSLGERATINCKSSQTLLNSVSQNNYLAWYQQKPGQSPKLLIYFASTRESGVPDRFSGSGSGTDFTLTISSLQAEDVAVYYCQQHYRTPYTFGGGTKVEIK , thanks.
OUT: 5.66

IN: Entry F2.39.3-H6 (scFv, not shown: small tags and cut ends, also called S009-F2.39.3 humanized antibody VH2 + VL2) scFv: EVQLVQSGAEVKKPGASVKVSCKASGYTFTNYWMHWVRQAPGQGLEWMGNINPSSGDSYYNERFMSRVTMTVDKSTSTAYMELSSLRSEDTAVYYCARSGGLWLAFWGQGTLVTVSSGGGGSGGGGSGGGGSDIVMTQSPDSLAVSLGERATINCKSSQTLLNSVSQNNYLAWYQQKPGQSPTLLIYFASTRESGVPDRFSGSGSGTDFTLTISSLQAEDVAVYYCQQHYRTPYTFGGGTKVEIK : reported EC50 = ?
OUT: 6.26
